Assay: Ratio of drug concentration in brain to plasma of rat
Format: ADME
Conditions: read-out: BPR
Reported endpoint: Kp
Give only the figure.

Reference set (3 entries):
>  <Smiles string>
O=C(NC1CN(C2CN(C(=O)c3ccc4nc(-c5ccccc5)oc4c3)C2)C1)c1nccs1

>  <Kp>
0.39

$$$$
>  <Smiles string>
O=C(NC1CN(C2CN(C(=O)c3ccc(-c4cccc(C(F)(F)F)c4)cc3)C2)C1)c1nccs1

>  <Kp>
0.85

$$$$
>  <Smiles string>
O=C(c1cc2cc(-c3ccccc3)ccc2s1)N1CC(N2CC(N3Cc4ccccc4C3=O)C2)C1

>  <Kp>
0.25

$$$$

Lab note: next molecule to report on.
Query :: GET /values?readout=Kp&item= `O=C(NC1CN(C2CN(C(=O)c3sc4cc(C(F)(F)F)ccc4c3Cl)C2)C1)c1nccs1`
Result :: 0.33

* * *

Assay: Drug concentration in plasma of rat at 10 mg/kg, po
Assay type: ADME, organism-based
Conditions: in vivo
Collected concentration values appear next to each entry.

Reference set (3 entries):
>  <Smiles string>
O=C(NC1CN(C2CN(C(=O)c3ccc(-c4cccc(C(F)(F)F)c4)cc3)C2)C1)c1nccs1

>  <Result>
810 nM

$$$$
>  <Smiles string>
O=C(NC1CN(C2CN(C(=O)c3sc4cc(C(F)(F)F)ccc4c3Cl)C2)C1)c1nccs1

>  <Result>
1080 nM

$$$$
>  <Smiles string>
O=C(c1cc2cc(-c3ccccc3)ccc2s1)N1CC(N2CC(N3Cc4ccccc4C3=O)C2)C1

>  <Result>
4760 nM

$$$$

Lab note: next molecule to report on.
Query :: GET /values?readout=concentration&item= `O=C(NC1CN(C2CN(C(=O)c3ccc4nc(-c5ccccc5)oc4c3)C2)C1)c1nccs1`
Result :: 2170 nM

* * *

Target: Monoglyceride lipase (Rattus norvegicus) (UniProt Q8R431)
Sequence (whole entry): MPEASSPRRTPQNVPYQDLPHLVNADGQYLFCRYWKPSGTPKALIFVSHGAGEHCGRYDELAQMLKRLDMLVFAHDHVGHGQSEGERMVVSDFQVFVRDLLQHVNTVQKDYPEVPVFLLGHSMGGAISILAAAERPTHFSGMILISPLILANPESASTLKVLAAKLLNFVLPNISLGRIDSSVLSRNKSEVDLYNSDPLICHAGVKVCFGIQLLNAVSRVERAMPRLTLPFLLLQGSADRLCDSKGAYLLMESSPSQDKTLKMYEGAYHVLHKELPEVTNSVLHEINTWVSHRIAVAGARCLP
Assay: Inhibition of MAGL in rat brain homogenate assessed as accumulation of 2-AG at 10 uM measured after 15 mins by HPLC-MS analysis relative to control
Type: tissue-based
Design: scale not given: the % may be the effect or the level left
Outcome label depends on Activity relative to 500%: at/above gives yes, below gives no.

>  <Smiles string>
O=C(c1ccc2nc(-c3ccccc3)oc2c1)N1CC(N2CC(N3Cc4ccccc4C3=O)C2)C1

>  <Target of assay>
Monoglyceride lipase (Rattus norvegicus) (UniProt Q8R431)

>  <Class label>
no

$$$$
>  <Smiles string>
Cc1c(C(=O)N2CC(N3CC(NC(=O)c4nccs4)C3)C2)sc2ccc(Cl)cc12

>  <Target of assay>
Monoglyceride lipase (Rattus norvegicus) (UniProt Q8R431)

>  <Class label>
yes

$$$$
>  <Smiles string>
O=C(NC1CN(C2CN(C(=O)c3ccc4c(ccn4-c4ccc(F)cc4)c3)C2)C1)c1cscn1

>  <Target of assay>
Monoglyceride lipase (Rattus norvegicus) (UniProt Q8R431)

>  <Class label>
no

$$$$
>  <Smiles string>
O=C(c1cc2ccc(C(F)(F)F)cc2s1)N1CC(N2CC(N3Cc4ccccc4C3=O)C2)C1

>  <Target of assay>
Monoglyceride lipase (Rattus norvegicus) (UniProt Q8R431)

>  <Class label>
no

$$$$
>  <Smiles string>
O=C(NC1CN(C2CN(C(=O)c3ccc(Cc4ccccc4)cc3)C2)C1)c1nccs1

>  <Target of assay>
Monoglyceride lipase (Rattus norvegicus) (UniProt Q8R431)

>  <Class label>
yes

$$$$

Query :: Answer whether Activity of `O=C(NC1CN(C2CN(C(=O)c3ccc(-c4cccc(C(F)(F)F)c4)cc3)C2)C1)c1nccs1` is greater than or equal to 500%.
Result :: yes

Query :: Answer whether Activity of `O=C(c1ccc(-c2ccc(C(F)(F)F)s2)cc1)N1CC(N2CC(N3Cc4ccccc4C3=O)C2)C1` is greater than or equal to 500%.
Result :: yes

Query :: Answer whether Activity of `O=C(c1cc2cc(-c3ccccc3)ccc2s1)N1CC(N2CC(N3Cc4ccccc4C3=O)C2)C1` is greater than or equal to 500%.
Result :: yes
